method description: Pharmacokinetic assessment
Assay type: in vivo, C57BL/6 mice
experimental parameters: female, C57BL/6, mouse; C57/BL6 mice, 50 mg kg-1 oral gavage, serum; read-out: Cmax
observable: Cmax

Item Cc1cc(=O)n(C)c2c3c4c(cc12)c(C)cc(=O)n4CO3 [DNM, deoxynybomycin] has what recorded Cmax?
< 60 ng/mL

###

method description: Pharmacokinetic assessment
Type: in vivo, C57BL/6 mice
experimental parameters: female, C57BL/6, mouse, in vivo; mice, 50 mg kg^−1 oral dose, serum; read-out: Cmax (peak serum concentration)
observable: Cmax
A bare number is not enough; add the unit after it.

Item `CCn1c(=O)cc(C)c2cc3c(C)cc(=O)n4c3c(c21)OC4` has what recorded Cmax?
42.6 µM
